B1: KRT13 (parent)
chain: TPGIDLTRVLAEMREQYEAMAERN

Variants of: B1
Method Notes: protein stability index of a GFP-peptide fusion (GPS, HEK-293T) (PSI 1-6); higher = more stable;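 further: lentivirally expressed fusions sorted by FACS into six bins by GFP to DsRed ratio, PSI derived from sequencing read proportions per bin multiplied by bin number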
Protocol Conditions: c terminus: a fixed tail appended
Class satisfied: protein stability index at least 4. Class not satisfied: protein stability index below 4.

[[record]]
variant_identifier = "R14Q"
category_label = "satisfied"

[[record]]
variant_identifier = "A19S"
category_label = "satisfied"

[[record]]
variant_identifier = "V9K"
category_label = "satisfied"

[[record]]
variant_identifier = "L6K"
category_label = "satisfied"

[[record]]
variant_identifier = "T7P"
category_label = "satisfied"

[[record]]
variant_identifier = "A21S"
category_label = "satisfied"

[[record]]
variant_identifier = "E22L"
category_label = "satisfied"

[[record]]
variant_identifier = "Y17V"
category_label = "satisfied"

[[record]]
variant_identifier = "M13G"
category_label = "satisfied"

[[record]]
variant_identifier = "T7E"
category_label = "satisfied"

[[record]]
variant_identifier = "M20N"
category_label = "not satisfied"

[[record]]
variant_identifier = "E18P"
category_label = "not satisfied"

[[record]]
variant_identifier = "P2M"
category_label = "not satisfied"

[[record]]
variant_identifier = "L6A"
category_label = "satisfied"

[[record]]
variant_identifier = "Y17E"
category_label = "satisfied"

[[record]]
variant_identifier = "N24Q"
category_label = "satisfied"

[[record]]
variant_identifier = "E15P"
category_label = "not satisfied"

[[record]]
variant_identifier = "A21R"
category_label = "satisfied"

[[record]]
variant_identifier = "I4H"
category_label = "satisfied"

[[record]]
variant_identifier = "A21P"
category_label = "satisfied"

[[record]]
variant_identifier = "I4C"
category_label = "satisfied"

[[record]]
variant_identifier = "T7H"
category_label = "not satisfied"

[[record]]
variant_identifier = "T7F"
category_label = "not satisfied"

[[record]]
variant_identifier = "V9T"
category_label = "not satisfied"

[[record]]
variant_identifier = "A11T"
category_label = "not satisfied"

[[record]]
variant_identifier = "L10I"
category_label = "not satisfied"

[[record]]
variant_identifier = "M20E"
category_label = "satisfied"

[[record]]
variant_identifier = "E12Y"
category_label = "not satisfied"

[[record]]
variant_identifier = "M13I"
category_label = "not satisfied"

[[record]]
variant_identifier = "M13E"
category_label = "satisfied"

[[record]]
variant_identifier = "A19Q"
category_label = "not satisfied"

[[record]]
variant_identifier = "M20Q"
category_label = "satisfied"

[[record]]
variant_identifier = "V9E"
category_label = "satisfied"

[[record]]
variant_identifier = "T7L"
category_label = "not satisfied"

